Values compiled from ChEMBL document CHEMBL1142684.

Each entry below carries its recorded Weight loss.
System: Mus musculus
Assay: Maximum amount of weight loss in Balb/C mice after 7 days of 60 mg/kg intraperitoneal administration
Format: functional
parameter measured: Weight loss (%)

> print(dat)
                               structure  assay.result
1      C/C=C/C(C)=C/[C@@]1(C)SC(O)=CC1=O           4.1
2  CCCCCCCC[C@@]1(C)SC(=O)C=C1OCC(=O)OCC           2.7
3    CCCCCCCC[C@@]1(C)SC(=O)C=C1OC(=O)OC           6.1

====

Test system: MCF7
Assay: Inhibitory concentration against fatty acid synthesis in MCF-7 breast cancer cells
Assay type: functional, cell-based, Homo sapiens
Conditions: Homo sapiens, MCF7; read-out: IC50
Parameter IC50: see the listing below.
parameter measured: IC50 (µg/mL)

> print(dat)
                                   structure  reading.qualifier  assay.result
 1              CCCCCCCC[C@@]1(C)SC(O)=CC1=O                  =          12.6
 2             COC1=CC(=O)S[C@]1(C)Cc1ccccc1                  >            50
 3       CCCCCCCC[C@@]1(C)SC(=O)C=C1OCC(=O)O                  =          13.8
 4   C=CCC1(CC=C)C(=O)S[C@](C)(CCCCCCCC)C1=O                  >            50
 5         C/C=C/C(C)=C/[C@@]1(C)SC(O)=CC1=O                  =          17.3
 6      CCCCCCCC[C@@]1(C)SC(=O)C=C1OC(=O)OCC                  =          14.5
 7       CCCCCCCC[C@@]1(C)SC(=O)C=C1OC(=O)CC                  =          22.6
 8  CCCCCCCC[C@@]1(C)SC(O)=C(C(=O)C(F)(F)F)C1=O                  =          14.7
 9  CCCCCC[C@@]1(C)SC(=O)C=C1OCC(=O)NCC(=O)O                  =           6.6
10             CCCCCCCC[C@@]1(C)SC(=O)C=C1OC                  >            50
11             C#CCOC1=CC(=O)S[C@]1(C)CCCCCC                  =          21.9

====

Test system: MCF7
Assay: Inhibitory concentration against fatty acid synthesis in MCF-7 breast cancer cells
Assay type: functional, cell-based, Homo sapiens
Settings: Homo sapiens, MCF7; read-out: IC50
parameter measured: IC50 (µg/mL)

> print(dat)
                                    compound  result.unit  reading.qualifier  assay.result
 1    CCCCCC[C@@]1(C)SC(=O)C=C1OCC(=O)NCCCBr        µg/mL                  =           6.7
 2       CCCCCCCC[C@@]1(C)SC(=O)C=C1OC(=O)OC        µg/mL                  =          10.7
 3              C[C@]1(Cc2ccccc2)SC(O)=CC1=O        µg/mL                  >            50
 4          CCCCCC[C@@]1(C)SC(=O)C=C1OCCCCCl        µg/mL                  =           8.6
 5                CCCCCC[C@@]1(C)SC(O)=CC1=O        µg/mL                  =          16.5
 6           CCCCCCCC[C@@]1(C)SC(O)=C(C)C1=O        µg/mL                  =          16.5
 7    C=CCNC(=O)COC1=CC(=O)S[C@]1(C)CCCCCCCC        µg/mL                  >            50
 8  CCCCCCCC[C@@]1(C)SC(O)=C(C(C)O)C1=O (stereo in doubt; 29)        µg/mL                  =          17.6
 9       CCCCCC[C@@]1(C)SC(=O)C=C1OCC(=O)OCC        µg/mL                  =          14.2
10          CCCCCCCC[C@@]1(C)SC(=O)C(C)=C1OC        µg/mL                  >            50
11           CC/C=C/C=C/[C@@]1(C)SC(O)=CC1=O        µg/mL                  =          16.9
12           C=CCOC1=CC(=O)S[C@]1(C)CCCCCCCC        µg/mL                  >            50
13             C=CCOC1=CC(=O)S[C@]1(C)CCCCCC        µg/mL                  >            50
14  CCCCCC[C@@]1(C)SC(=O)C=C1OCC(=O)NCC(=O)OC        µg/mL                  =           9.8
15  C=C/C(C)=C/[C@@]1(C)SC(=O)C(C)=C1O (stereo in doubt; form 1)        µg/mL                  =          38.4
16               CCCCCC[C@@]1(C)SC(=O)C=C1OC        µg/mL                  =            14
17     C=CCOC(=O)OC1=CC(=O)S[C@]1(C)CCCCCCCC        µg/mL                  =          14.2
18         CCCC/C=C/C=C/[C@@]1(C)SC(O)=CC1=O        µg/mL                  =          22.6
19     CCCCCCCC[C@@]1(C)SC(O)=C(C(=O)OC)C1=O        µg/mL                  =          18.7
20        C=CCOC1=C(C)C(=O)S[C@]1(C)CCCCCCCC        µg/mL                  >            50
21        CCCCCCCC[C@@]1(C)SC(=O)C=C1OCCCCCl        µg/mL                  >            50
22      CCCCCCCC[C@@]1(C)SC(O)=C(C(C)=O)C1=O        µg/mL                  =            12
23     CCCCCCCC[C@@]1(C)SC(=O)C=C1OCC(=O)OCC        µg/mL                  =          10.8
24         C=CCC1=C(O)S[C@](C)(CCCCCCCC)C1=O        µg/mL                  =          34.8
25  C=CCC1(C)C(=O)S[C@](C)(CCCCCCCC)C1=O (stereo not given in full)        µg/mL                  >            50
